- target: Shiga toxin 2 (Escherichia coli O157:H7) (UniProt P09385+P09386)
- test-name: E. coli 0.157:H7 Shiga Toxin SOP - stx2 screening assay
- Assay type: functional
- Set-up: scale not given: direction of the effect not stated beside the values
- condition: 30 µM
property-measured: Percent Effect (%)

compound | unit-abbrev | measured-result
CCC(O)CNC(=O)c1coc(COc2ccc3sc(C)nc3c2)n1 (configuration not stated) | % | -27.2
Cc1ccnc(OCC(=O)N2CCC(C(N)=O)CC2)n1 | % | 1.84
Cn1cc(N2CC3(CCN(CC4CCOCC4)CC3)OCC2=O)cn1 | % | -32.8
CCN1CC(C(=O)NCc2ccnc(-n3ccnc3C)c2)CC1=O (configuration not stated) | % | -11.9
Cc1noc(C)c1CNC(=O)N1CCC(CO)CC1 | % | -4.58
CCC(=O)N1CCc2nc3cc(OC)c(OC)cc3c(=O)n2CC1 | % | -7.9
O=c1cccnn1CC1CN(Cc2ccsc2)Cc2nccn2C1 (configuration not stated) | % | 5.53
CCc1cnc2c(c1NCc1cccc(OC)c1)c(=O)n(C)c(=O)n2C | % | -21.5
CN(c1ccncn1)C1CC2(CCN(C(=O)c3ccsc3)C2)C1 (configuration not stated) | % | -32.2
Cc1cc(CN(C)C(=O)NCc2cccc(N3CCCC3=O)c2)no1 | % | -15
CC1=Nc2c(c(=O)[nH]n2C2CCOCC2)C(c2cccc(Br)c2)S1 (configuration not stated) | % | 15
CC(=O)Nc1nc(CN2CCCCC2Cn2cccn2)cs1 (configuration not stated) | % | -4.08
